System: MOLT-4 leukemia
procedure.text: NCI-60 one-dose screen, 48 h (100 = growth as untreated, 0 = no growth, -100 = all killed)
conditions.used: 10 µM unless noted
About 83,000 compounds went through this panel and 20% of them were active in at least one assay; those are over-represented in the sample as a whole.
Field: growth. Provide a value for each of the compounds that follow.
Give bare numbers, in %.

Example entries and their recorded answers appear below.
compound: CCN(CC)CCOc1ccccc1-n1c(C)ccc1-c1ccccc1
display.unit: %
growth: -35.2
--
compound: COc1ccc(CCN2CCCN3C2=Nc2ccccc2S3(=O)=O)cc1
display.unit: %
growth: 24.7
--
compound: Cc1cc(C(=O)O)c(C)cc1C(=O)O
display.unit: %
growth: 87.7
--
compound: O=[P@@]1(c2ccccc2)O[C@H](COCc2ccccc2)[C@@H](OCc2ccccc2)[C@H](OCc2ccccc2)[C@H]1NCc1ccccc1
display.unit: %
growth: 0.343
--
compound: N=C(N)/N=C(\CCc1nc2ccccc2[nH]1)c1nc2ccccc2[nH]1
display.unit: %
growth: 107
--
compound: CCC1=C(c2ccc(OC)cc2)C(C)Oc2cc(OC(C)=O)ccc21 (stereo unspecified)
display.unit: %
growth: 76.7
--
compound: CCN1C[C@@H](C)n2c(c(O)c3c(=O)n(Cc4ccc(F)c(Cl)c4)nc(C(=O)NC)c32)C1=O
display.unit: %
growth: 21.6
--
compound: O=C(C(=O)N1CCCCC1)c1ccc(OC2OC(CO)C(O)C(O)C2O)cc1 (stereo unspecified)
display.unit: %
growth: 87.7
--
compound: CC[N+](CC)(CCOCCOCC[N+](CC)(CC)Cc1ccc([N+](=O)[O-])cc1)Cc1ccc([N+](=O)[O-])cc1
display.unit: %
growth: 84.8
--
compound: O=C(N1CCC(CN=c2cc3n(-c4ccc(Cl)cc4)c4ccccc4nc-3cc2Nc2ccc(Cl)cc2)CC1)N1CC1
display.unit: %
growth: -22.6

Can you give me growth for all of these, one by one?
1. N#Cc1c2ccccc2c2n1-c1ccccc1OC(c1ccccc1)C2=O (stereo unspecified)
2. COc1ccc2c(c1)nc(N)c1c3cc(C)c(C)cc3cn21
3. CCCCOc1ccc(C(C)(C)c2ccc(OCCCC)cc2)cc1
4. CCC1(c2ccccc2)Oc2ccccc2-n2c(C#N)c3ccccc3c2C1=O (stereo unspecified)
5. Cc1c(NCc2nnc3n(Cc4ccccc4)c(=O)c4c5c(sc4n23)CCCC5)c(=O)n(-c2ccccc2)n1C
6. S=C(Nc1ccc(C2=NCCN2)cc1)Nc1ccc(C2=NCCN2)cc1
7. CN(C)c1ccc2[nH]c3c(C(N)=O)cc(=O)c(=O)c=3oc2c1
8. CC(C)(C)c1cc(O)c(O)c(C(C)(C)C)c1

1. 56.4
2. 69.2
3. 99.7
4. 91
5. 52.7
6. 93.6
7. 9.08
8. 6.61

Hey, quick one: what's growth for each of these?
1. N#Cc1ccc(NC(=O)Nc2ccc(Oc3ccc(NC(=O)Nc4ccc(C#N)cc4)cc3)cc2)cc1
2. COc1cc(C2CC(=O)Nc3c2cc(Br)c2ccccc32)cc(Br)c1OC (stereo unspecified)
3. O=C(NCCCO)c1cc(Cl)ccc1O
4. COc1ccc(-c2nnc(COc3ccc(NC(=O)Nc4cc(C(F)(F)F)cc(C(F)(F)F)c4)cc3F)o2)cc1
5. COc1ccc2nccc(/C=C/c3ccnc4ccc(OC)cc34)c2c1
6. O=[N+]([O-])c1ccc(N/N=C/c2c(O)ccc3ccccc23)nc1
7. c1ccc(Nc2nnc(-c3cc(-c4cccnc4)n(-c4ccccc4)n3)s2)cc1
8. c1ccc(N2CCN(c3nncc4ccccc34)CC2)nc1

1. -58
2. 30.9
3. 33.2
4. 8.94
5. 33.1
6. 10.5
7. 56.5
8. 106

Required: growth, one value per compound below.
1. O=C(/C(=C/c1cccc([N+](=O)[O-])c1)c1ccccc1)c1ccccc1
2. COc1ccc(Cn2cc3c(c2-c2ccccc2)CCc2cncnc2-3)cc1
3. Nc1nc2ncc(CCNc3ccc(C(=O)NC(CCC(=O)O)C(=O)O)cc3)nc2c(=O)[nH]1 (stereo unspecified)
4. Nc1nc(N)c([N+](=O)[O-])c(=O)[nH]1
5. COc1cccc2c1O/C(=C\c1c([N+](=O)[O-])ncn1C)C2=O
6. COc1cc2c(-c3nc4cc(Cl)c(F)cc4s3)cc(=O)oc2c(C)c1OC

[4.09, 80, 145, 111, 85.3, -43]

Go through the items and report each one's growth.
1. COc1cc(-c2cc(C(=O)Nc3nc4ccccc4s3)nc3cc(-c4ccccc4)nn23)cc(OC)c1OC
2. CC/C(=C\c1ccc(N(C)C)cc1)c1nc2ccccc2c(=O)[nH]1
3. Nc1nc(Cl)c2[nH]cnc2n1
4. CCOC(=O)C1=C(C)N2C(=NC3=C(CCC/C3=C\c3ccc(Cl)cc3)C2c2ccc(Cl)cc2)S1 (stereo unspecified)
5. CCN1C2=C(SC(=S)C1=C1SC(C(=O)OC)=C(C(=O)OC)S1)SC(=Nc1ccc(OC)cc1)C2=O
6. COc1c(O)cc2oc3cc(O)c(CC=C(C)C)c(O)c3c(=O)c2c1C/C=C(\C)CCC=C(C)C
7. CC(C)(C)c1ccc(S(=O)(=O)O)s1

[76, 140, 114, -3.87, 13.2, 6.16, 76.1]

Dear reader, for each entry below, please note its growth.
1. CCN(CC)c1ccc(CN(CC(=O)c2ccc(Cl)c(Cl)c2)Cc2ccccc2)cc1
2. Cc1c(C(N)=O)sc2ncn(CC(=O)Nc3ccc(Cl)cc3)c(=O)c12

[98, 112]
